Target: pooled human IgG (human IgG1, 2, 3 and 4)
recorded_metric: Enzyme Activity Endpoint Assay: IgG

protein	reported_result
PRT-246 (protein) MVTSVWTKGVTPPANFTQGEDVFHAPYVANQGWYDITKLFNGKDDLLCGAATAGNMLHWWFDQNKDQIKRYLEEHPEKQKINFNGEQMFDVKEAIDTKNHQLDSKLFDYFKEKAFPYLSTKHLGVFPDHVIDMFINGYRLSLTNHGPTPVKEGSKDPRGGIFDAVFTRGDQSKLLTSRHDFKEKNLKEISDLIKKELTEGKALGLSHTYANVRINHVINLWGADFDSNGNLKAIYVTDSDSNPSIGMKKYFVGVNSSGKVAISAKEIKEDNIGAQVLGLFTLSTGQDSWNQTN	0 ng/µL

Asked: Given the protein PRT-528 (protein) MANQEIRYSEETPKTITSVWTKGVTPPTDFIQNEDVLHAPYIANQGWYDITKTFNGKDDLLCGAATAGNMLHWWFDQNKEEIENYLKKHPEKQKINFNGEQMFDVKEAIDTKDSQTDSALFEYFKDKAFPNLSTKHLGVMPDLVLDMFINGYYLSLGKHGPTPVKRGTKDPRGGIFDAVFTRGDQSKLLTARHDFKEKTLNEISDLIKQELTEGKALALSHTYANVRINHVINLWGADFNSEGNLEAIYVTDSDSNASIGMKKYYVGVNAAGKVAISAKEIEGDNIGAQVLGLFTLSTGQDIWEQTNLEHHHHHH , what is its reported Enzyme Activity Endpoint Assay: IgG?
Given back: 354 ng/µL
